- System: Helicobacter pylori
- Assay explanation: Minimum bactericidal concentration against Helicobacter pylori ATCC 43504
- Assay type: functional
Measurement label: MBC (µg/mL)
Write it as a number; the unit µg/mL goes unstated.

>>> numeric_readout("CC1(C)S[C@@H]2[C@H](NC(=O)[C@H](N)c3ccc(O)cc3)C(=O)N2[C@H]1C(=O)O [AMOXICILLIN]")
0.05

Inquiry: Quick check: MBC of "Cc1c(OCC(C)C)ccnc1CNc1nc2ccccc2[nH]1" ?
Reply text: 8

Inquiry: Quick check: MBC of CC[C@H]1OC(=O)[C@H](C)[C@@H](O[C@H]2C[C@@](C)(OC)[C@@H](O)[C@H](C)O2)[C@H](C)[C@@H](O[C@@H]2O[C@H](C)C[C@H](N(C)C)[C@H]2O)[C@](C)(OC)C[C@@H](C)C(=O)[C@H](C)[C@@H](O)[C@]1(C)O [CLARITHROMYCIN] ?
Reply text: 0.1
